Each entry below carries its reported EC50.
- target of assay: human CTLA-4 (Y166G and Y183G) expressed on CHO-K1.hCTLA-4 cells (human, UniProt P16410 36-223)
- Sequence (P16410 36-223 Y201G/Y218G limits assumed): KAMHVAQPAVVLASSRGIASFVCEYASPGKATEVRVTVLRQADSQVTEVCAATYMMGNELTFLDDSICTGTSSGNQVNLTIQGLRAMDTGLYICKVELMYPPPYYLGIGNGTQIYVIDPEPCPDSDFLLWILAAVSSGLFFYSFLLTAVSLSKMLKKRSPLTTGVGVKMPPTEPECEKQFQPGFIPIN
- assay remarks: CELISA on CHO-K1.hCTLA-4 cells
Write the number in pM without appending the unit.

hCTLA4.27H4L5 (antibody, human IgG4 S228P, kappa, V domains shown, Humanized, human IgG4 (S228P) kappa; H4 read as hCTLA4.27VH4, L5 as hCTLA4.27VL5) VH: EVQLVQSGAEVKKPGASVKVSCKASGYSFTTYWMNWVRQAPGQGLEWMGMIHPSDSETSLNQAFKDRVTMTRDTSTSTVYMELSSLRSEDTAVYYCARMGRRNPYYFDYWGQGTLVTVSS VL: DIQMTQAPSSLSASVGDRVTITCRPSENLYTNLAWYQQKPGKAPKLLLYGATNLADGVPSRFSGSGSGTDYTLTISSLQAEDFATYYCQHLWGTPFTFGGGTKLEIKR; 61
hCTLA4.27H1L1 (antibody, human IgG4 S228P, kappa, V domains shown, Humanized, human IgG4 (S228P) kappa; H1 read as hCTLA4.27VH1, L1 as hCTLA4.27VL1) VH: EVQLLQSGAVLARPGTSVKISCKASGYSFTTYWMNWVKQRPGQGLEWIGMIHPSDSETSLNQAFKDKAKLTAATSASIAYLEFSSLTNEDSAVYYCARMGRRNPYYFDYWGQGTLVTVSS VL: DIQMTQSPSSLSASVGDRVTITCRPSENLYTNLAWYQQKPGKAPKLLLYGATNLADGVPSRFSGSGSGTDYTLTISSLQPEDFATYYCQHLWGTPFTFGQGTKLEIKR; 37

Turning to the following binder.
query: Tell me EC50 reported for hCTLA4.27H6L2 (antibody, human IgG4 S228P, kappa, V domains shown, Humanized, human IgG4 (S228P) kappa; H6 read as hCTLA4.27VH6, L2 as hCTLA4.27VL2) VH: EVQLLESGPELVRPGSSVKISCKASGYSFTTYWMNWVKQRPGKGLEWIGMIHPSDSETSLNQAFKDKVKLTAATSASIAYLEFSSLRNEDSAVYYCARMGRRNPYYFDYWGQGTLVTVSS VL: DIQMTQSPSSLSASVGDRVTITCRPSENLYTNLAWYQQKPGKAPKLLIYGATNLADGVPSRFSGSGSGTEFSLSISSLQPEDFATYYCQHLWGTPFTFGGGTKVEIKR
result: 27
